The reported measurements were obtained from the supplement of paper PMC10065799.

Test system: c-Src;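 note: 11-residue human phosphosite peptides and single-mutation variants displayed on the E. coli surface, counted by deep sequencing, each peptide's frequency after selection divided by its frequency in the unselected input library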;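 note: frequency after pTyr selection over input frequency; kinase dosed for 20-30% of maximal phosphorylation in three min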
Experiment: phosphorylation enrichment, bacterial display (enrichment ratio); higher = better substrate or ligand; peptides without Tyr show the background
# binarize phosphorylation enrichment: threshold 1 inclusive, high side T, low side F

>>> df
                     record_sequence  assay_target  label
 0          PIDLYYLMDLS [ITGB2_Y131]         c-Src      T
 1   DDSSAYCSVDE [BCKDHA_Y345_R346C]         c-Src      F
 2  AIIGIYILRDN [CDH23_Y2949_D2954N]         c-Src      T
 3   YAKSVYWDNTL [NUP107_Y296_E298D]         c-Src      F
 4     PYSSPYENSLI [EPOR_Y489_N487S]         c-Src      F
 5     LSNFNYEQRGA [API5_Y497_G493S]         c-Src      T
 6     SVTCTYSPALI [TP53_Y126_N131I]         c-Src      F
 7           GSSKIYFLHPD [TLR5_Y108]         c-Src      T
 8           DWRQEYVLNES [TGM1_Y267]         c-Src      T
 9       FFNSEYGELSE [FLT4_Y1337_YF]         c-Src      T
10           SSQHRYSTPHA [RAF1_Y232]         c-Src      F
11        ISIFHCAKGQP [MPZ_Y82_Y82C]         c-Src      F
12          ADSLRYIYPKL [EIF2B3_Y92]         c-Src      F
